Below: a set of entries, each annotated with reported melting point.

Please review the following examples before continuing.
Return melting point (reported value) for this molecule: "C#Cc1c2c(nc3ccc(O)cc13)-c1ccc(O)cc1OC2" 220 °C (dec.)

Please report melting point for the following molecule: "Oc1ccc2c(c1)OCc1c-2nc2ccc(O)cc2c1Br" 240 °C (dec.)

Please report melting point for the following molecule: "COc1ccc(-c2c3c(nc4ccc(O)cc24)-c2ccc(O)cc2OC3)cc1" 195 °C (dec.)

Specify reported melting point for the molecule shown: "N#Cc1ccc(-c2c3c(nc4ccc(O)cc24)-c2ccc(O)cc2OC3)cc1" 295 °C (dec.)

For the molecule "COc1ccc2c(c1)OCc1c-2nc2ccc(OC)cc2c1Cl" , give its reported melting point. 190 to 191 °C

Next:
Specify reported melting point for the molecule shown: "CCc1c2c(nc3ccc(O)cc13)-c1ccc(O)cc1OC2" 145 °C (dec.)

====

target under test: human ERβ (Homo sapiens)
Construct: made in house; host or cells: E. coli (crude lysate)
protocol description: Competition with [3H]-17β-estradiol for binding to the ERβ ligand binding domain
condition context: ERα IC50 / ERβ IC50
Procedure: Representative examples of the invention were evaluated for their ability to compete with 17β-estradiol for both ERα and ERβ. The test procedure used allows one to determine whether a particular compound binds to the estrogen receptor (and is therefore “estrogenic”) and whether there is selectivity for ERα or ERβ. […] After between 5 and 15 hours at room temperature, the plates were washed with DPBS/1 mM EDTA and bound radioactivity determined by liquid scintillation counting.
measurement kind: α/β receptor selectivity (ratio of ERα IC50 to ERβ IC50)

Consider the reported α/β receptor selectivity (ratio of ERα IC50 to ERβ IC50) for these molecules:
Note down α/β receptor selectivity (ratio of ERα IC50 to ERβ IC50) recorded for "N#Cc1c2c(nc3ccc(O)cc13)-c1ccc(O)cc1OC2" 7

Output α/β receptor selectivity (ratio of ERα IC50 to ERβ IC50) of "C[Si](C)(C)C#Cc1c2c(nc3ccc(O)cc13)-c1ccc(O)cc1OC2" 0.8

Identify α/β receptor selectivity (ratio of ERα IC50 to ERβ IC50) associated with the molecule "CCc1c2c(nc3ccc(O)cc13)-c1ccc(O)cc1OC2" 13

P = C=Cc1c2c(nc3ccc(O)cc13)-c1ccc(O)cc1OC2
Q = COc1ccc(-c2c3c(nc4ccc(O)cc24)-c2ccc(O)cc2OC3)cc1
Between the entries labelled P and Q , which has a larger α/β receptor selectivity (ratio of ERα IC50 to ERβ IC50) value on record? # respond with the chosen item's label P
(P: 18, Q: 6)

====

Form field: melting point (one value per entry).

Give the measured melting point for Oc1ccc2c(c1)OCc1c-2nc2ccc(O)cc2c1Cl [Cpd 6] 235 °C (dec.)

Consider the molecule N#Cc1cccc(-c2c3c(nc4ccc(O)cc24)-c2ccc(O)cc2OC3)c1 [Cpd 19] and give its recorded melting point. 275 °C (dec.)

State, in one line, measured melting point of COc1ccc2c(c1)OCc1c-2nc2ccc(OC)cc2c1Br [Cpd 5] 196 to 197 °C

Complete the entry with melting point for COc1cccc(-c2c3c(nc4ccc(O)cc24)-c2ccc(O)cc2OC3)c1 [Cpd 18] 155 to 158 °C (dec.)

Specify reported melting point for the molecule shown: Oc1ccc2c(c1)OCc1c-2nc2ccc(O)cc2c1-c1ccc(Cl)cc1 [Cpd 13] 215 to 218 °C (dec.)

More entries:
Supply reported melting point belonging to this molecule: C=Cc1c2c(nc3ccc(O)cc13)-c1ccc(O)cc1OC2 [Cpd 8] 160 °C (dec.)

Specify reported melting point for the molecule shown: Oc1ccc2c(c1)OCc1c-2nc2ccc(O)cc2c1-c1ccc(C(F)(F)F)cc1 [Cpd 16] 175 to 177 °C (dec.)

State its melting point for this molecule: C[Si](C)(C)C#Cc1c2c(nc3ccc(O)cc13)-c1ccc(O)cc1OC2 [Cpd 9] 160 °C (dec.)

Consider the molecule Oc1ccc2c(c1)OCc1c-2nc2ccc(O)cc2c1-c1cccc(Cl)c1 [Cpd 17] and give its recorded melting point. 162 to 165 °C (dec.)

====

target under test: human ERα (Homo sapiens, UniProt P03372)
Sequence (P03372 311-547 limits assumed): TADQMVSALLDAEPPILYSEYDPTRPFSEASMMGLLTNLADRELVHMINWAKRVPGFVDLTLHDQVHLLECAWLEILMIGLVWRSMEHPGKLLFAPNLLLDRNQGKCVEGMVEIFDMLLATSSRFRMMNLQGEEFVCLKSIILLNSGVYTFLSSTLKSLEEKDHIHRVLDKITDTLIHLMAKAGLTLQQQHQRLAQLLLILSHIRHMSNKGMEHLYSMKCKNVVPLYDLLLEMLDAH
protocol description: Competition with [3H]-17β-estradiol for binding to the ERα ligand binding domain
condition context: E. coli lysate expressing human ERα LBD; 2 nM [3H]-17β-estradiol; 5-15 hours at room temperature
measurement kind: IC50 (nM)

Sample answers from the record:
Identify IC50 associated with the compound "Oc1ccc2c(c1)OCc1c-2nc2ccc(O)cc2c1-c1ccc(Cl)cc1" 3090

Provide only the value of recorded IC50 for "CCc1c2c(nc3ccc(O)cc13)-c1ccc(O)cc1OC2" 66

I = C=Cc1c2c(nc3ccc(O)cc13)-c1ccc(O)cc1OC2
II = COc1ccc(-c2c3c(nc4ccc(O)cc24)-c2ccc(O)cc2OC3)cc1
Lab note: check whether I or II has the lower measured IC50. Choose, then provide that item's label. II
(II: 357 nM, I: 548 nM)

====

target under test: human ERβ (Homo sapiens, UniProt Q92731)
Sequence (Q92731 264-498 limits assumed): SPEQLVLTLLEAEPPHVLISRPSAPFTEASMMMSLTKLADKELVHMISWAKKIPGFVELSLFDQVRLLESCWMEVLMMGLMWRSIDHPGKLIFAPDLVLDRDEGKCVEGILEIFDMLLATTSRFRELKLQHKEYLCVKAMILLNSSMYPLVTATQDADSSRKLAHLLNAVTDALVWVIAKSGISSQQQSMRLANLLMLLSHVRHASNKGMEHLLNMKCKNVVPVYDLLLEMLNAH
protocol description: Competition with [3H]-17β-estradiol for binding to the ERβ ligand binding domain
condition context: E. coli lysate expressing human ERβ LBD; 2 nM [3H]-17β-estradiol; 5-15 hours at room temperature
measurement kind: IC50 (nM)

// worked examples, IC50 included
Check human ERβ (Homo sapiens, UniProt Q92731) data and give IC50 for N#Cc1cccc(-c2c3c(nc4ccc(O)cc24)-c2ccc(O)cc2OC3)c1 [Cpd 19] . 150

Give IC50 for this entry on human ERβ (Homo sapiens, UniProt Q92731): C#Cc1c2c(nc3ccc(O)cc13)-c1ccc(O)cc1OC2 [Cpd 10] 37

Provide IC50, tested on human ERβ (Homo sapiens, UniProt Q92731), for Oc1ccc2c(c1)OCc1c-2nc2ccc(O)cc2c1Br [Cpd 7] . 3.6

Enter IC50 (test system human ERβ (Homo sapiens, UniProt Q92731)) for CCc1c2c(nc3ccc(O)cc13)-c1ccc(O)cc1OC2 [Cpd 11] 5

# return IC50 for C=Cc1c2c(nc3ccc(O)cc13)-c1ccc(O)cc1OC2 [Cpd 8] , test system: human ERβ (Homo sapiens, UniProt Q92731) 31

A = Oc1ccc2c(c1)OCc1c-2nc2ccc(O)cc2c1-c1ccc(Cl)cc1 [Cpd 13]
B = COc1cccc(-c2c3c(nc4ccc(O)cc24)-c2ccc(O)cc2OC3)c1 [Cpd 18]
C = Oc1ccc2c(c1)OCc1c-2nc2ccc(O)cc2c1Cl [Cpd 6]
Arrange these compounds by their IC50, starting with the largest number. Answer format: the labels, ordered as requested. A, B, C
(A: 160 nM, B: 86 nM, C: 3.3 nM)

====

target under test: human ERβ (Homo sapiens, UniProt Q92731)
Construct: made in house; host or cells: E. coli (crude lysate)
protocol description: Competition with [3H]-17β-estradiol for binding to the ERβ ligand binding domain
condition context: ERα IC50 / ERβ IC50
measurement kind: α/β receptor selectivity (ratio of ERα IC50 to ERβ IC50)

Give me measured α/β receptor selectivity (ratio of ERα IC50 to ERβ IC50), please, for this compound: N#Cc1ccc(-c2c3c(nc4ccc(O)cc24)-c2ccc(O)cc2OC3)cc1 [Cpd 14] 17

Using known records, supply α/β receptor selectivity (ratio of ERα IC50 to ERβ IC50) for C#Cc1c2c(nc3ccc(O)cc13)-c1ccc(O)cc1OC2 [Cpd 10] 3

Output measured α/β receptor selectivity (ratio of ERα IC50 to ERβ IC50) for this item: COc1cccc(-c2c3c(nc4ccc(O)cc24)-c2ccc(O)cc2OC3)c1 [Cpd 18] 10

Give the reported value of α/β receptor selectivity (ratio of ERα IC50 to ERβ IC50) for this record: Oc1ccc2c(c1)OCc1c-2nc2ccc(O)cc2c1-c1ccc(Cl)cc1 [Cpd 13] 19

A = Oc1ccc2c(c1)OCc1c-2nc2ccc(O)cc2c1-c1ccc(C(F)(F)F)cc1 [Cpd 16]
B = Oc1ccc2c(c1)OCc1c-2nc2ccc(O)cc2c1Br [Cpd 7]
C = N#Cc1cccc(-c2c3c(nc4ccc(O)cc24)-c2ccc(O)cc2OC3)c1 [Cpd 19]
D = Oc1ccc2c(c1)OCc1c-2nc2ccc(O)cc2c1-c1cccc(Cl)c1 [Cpd 17]
E = Oc1ccc2c(c1)OCc1c-2nc2ccc(O)cc2c1Cl [Cpd 6]
// sort entries: α/β receptor selectivity (ratio of ERα IC50 to ERβ IC50), high to low Put the labels in the requested order and list them out. A, E, B, C, D
